measuredTarget: His-Tagged hOGA (human O-GlcNAcase) (Homo sapiens (Human), UniProt O60502)
Sequence (O60502 whole entry): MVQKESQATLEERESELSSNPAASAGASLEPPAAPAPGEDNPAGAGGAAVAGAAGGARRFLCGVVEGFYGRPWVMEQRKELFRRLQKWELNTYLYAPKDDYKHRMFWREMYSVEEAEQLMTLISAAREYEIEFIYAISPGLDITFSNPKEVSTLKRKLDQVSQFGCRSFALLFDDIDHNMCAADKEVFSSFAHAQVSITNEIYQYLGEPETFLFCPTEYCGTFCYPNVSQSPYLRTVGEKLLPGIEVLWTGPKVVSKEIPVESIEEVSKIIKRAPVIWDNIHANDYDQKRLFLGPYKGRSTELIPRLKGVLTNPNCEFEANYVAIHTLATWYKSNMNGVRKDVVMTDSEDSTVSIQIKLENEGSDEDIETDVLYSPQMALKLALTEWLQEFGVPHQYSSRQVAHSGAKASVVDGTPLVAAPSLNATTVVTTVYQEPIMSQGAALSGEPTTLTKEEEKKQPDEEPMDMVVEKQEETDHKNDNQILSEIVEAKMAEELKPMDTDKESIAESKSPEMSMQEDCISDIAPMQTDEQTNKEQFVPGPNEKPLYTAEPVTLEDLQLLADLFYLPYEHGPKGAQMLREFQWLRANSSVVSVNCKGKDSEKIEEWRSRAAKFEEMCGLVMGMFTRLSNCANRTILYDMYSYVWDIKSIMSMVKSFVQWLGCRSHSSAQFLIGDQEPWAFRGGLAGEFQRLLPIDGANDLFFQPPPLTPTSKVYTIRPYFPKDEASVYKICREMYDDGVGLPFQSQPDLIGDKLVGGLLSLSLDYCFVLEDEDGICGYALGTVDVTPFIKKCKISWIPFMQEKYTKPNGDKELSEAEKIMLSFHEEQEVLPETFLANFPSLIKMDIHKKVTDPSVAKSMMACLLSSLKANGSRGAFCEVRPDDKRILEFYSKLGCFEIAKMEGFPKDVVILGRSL
experimentSummary: Human O-GlcNAcase enzyme inhibition assay (Example B01)
Type: biochemical
measurementSetup: OGA enzyme inhibition assay; activity range classes; read-out: OGA IC50
property: IC50

Worked cases, IC50 given:
- compound: "CNC(=O)c1csc(N2CCN([C@@H](C)c3ccc4c(c3)OCO4)CC2)n1 (single isomer, unassigned) [Example 56]"
  reportedMeasurement: "< 50 nM"
- compound: "CC(c1ccc2c(c1)OCO2)N1CCN(c2nc(CN)cs2)CC1 (centres unmarked) [Example 84]"
  reportedMeasurement: "50 to 200 nM"
- compound: "C[C@@H](c1ccc2c(c1)OCO2)N1CCN(c2nc3c(s2)CN(C)CC3)CC1 [Example 194]"
  reportedMeasurement: "< 50 nM"
- compound: "C[C@@H](c1ccc2c(c1)OCCO2)N1CCN(c2ncc(C(=O)N(C)CCN(C)C)s2)CC1 (single isomer, unassigned) [Example 71]"
  reportedMeasurement: "< 50 nM"

What value of IC50 has been recorded for this entry: C[C@@H](c1ccc2c(c1)OCCO2)N1CCN(c2ncc(C(=O)N3CCC(O)CC3)s2)CC1 (single isomer, unassigned) [Example 81]
< 50 nM
